# method description: Inhibition of Pseudomonas aeruginosa class C serine beta-lactamase AmpC assessed as reduction in breakdown of cephalosporin FC-5 after 10 mins by fluorescence method
We begin with a simple list: items and their reported IC50.
A number alone suffices; assume nM.

Query: Check the records and state IC50 for `NCCN[C@H]1CC[C@H](CC(=O)N[C@H]2Cc3cccc(C(=O)O)c3OB2O)CC1`
Reply: 301

Query: Check the records and state IC50 for `O=C(O)C[C@@H]1CC[C@H](NC(=O)Cc2cccs2)B(O)O1`
Reply: 5000

----------
# method description: Inhibition of recombinant bacterial class B1 metallo beta-lactamase IMP-1 expressed in Escherichia coli assessed as reduction in breakdown of cephalosporin FC-5 preincubated for 10 mins followed by cephalosporin FC-5 addition by fluorescence method
# Parameters: species or system Bacteria
quantity measured: IC50 (nM)
A number alone suffices; assume nM.

Query: Check the records and state IC50 for `NCc1ccc(C(=O)N[C@H]2Cc3cccc(C(=O)O)c3OB2O)cc1`
Reply: 1000

----------
# method description: Inhibition of bacterial class B1 metallo beta-lactamase NDM-1 assessed as reduction in breakdown of cephalosporin FC-5 after 10 mins by fluorescence method
# Design: species or system Bacteria
quantity measured: IC50

Query: Check the records and state IC50 for `O=C(O)C[C@@H]1CC[C@H](NC(=O)Cc2cccs2)B(O)O1`
Reply: 631 µM

Hello, the source for this data is ChEMBL document CHEMBL4321803, in case you need it.
